# test-system: ERα (Homo sapiens, UniProt P03372)
# Construct: host or cells: MCF7
# Sequence (P03372 1-595): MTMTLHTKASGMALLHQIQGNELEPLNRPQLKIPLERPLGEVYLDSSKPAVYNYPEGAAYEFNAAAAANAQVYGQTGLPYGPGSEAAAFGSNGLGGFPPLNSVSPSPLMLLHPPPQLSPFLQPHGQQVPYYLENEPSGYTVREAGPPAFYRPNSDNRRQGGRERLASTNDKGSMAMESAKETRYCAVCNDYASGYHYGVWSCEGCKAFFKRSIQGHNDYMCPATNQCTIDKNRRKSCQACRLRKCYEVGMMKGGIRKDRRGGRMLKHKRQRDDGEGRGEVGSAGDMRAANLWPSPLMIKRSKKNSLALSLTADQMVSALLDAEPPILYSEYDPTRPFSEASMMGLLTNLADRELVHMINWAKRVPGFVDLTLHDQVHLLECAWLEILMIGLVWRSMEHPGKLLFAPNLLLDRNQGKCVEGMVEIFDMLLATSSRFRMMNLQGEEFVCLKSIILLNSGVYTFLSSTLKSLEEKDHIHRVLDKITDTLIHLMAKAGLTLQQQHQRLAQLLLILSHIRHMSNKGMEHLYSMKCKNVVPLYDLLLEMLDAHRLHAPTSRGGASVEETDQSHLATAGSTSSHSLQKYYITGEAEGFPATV
# test-summary: Estrogen receptor degradation activity: breast cancer cell ERα in cell western assay (MCF7 cells)
# Type: cell-based
# test-context: 0.3 μM, 4 hours, relative to fulvestrant 0.1 μM positive control
experimental-endpoint: % Degradation At 0.3 μM (%)

[
  {
    "molecule": "Cc1cccc(C2=C(c3ccc(C=C4CN(CCCF)C4)cc3)c3ccc(C(=O)O)cc3CCC2)c1Cl [Example 76]",
    "unit-string": "%",
    "% Degradation At 0.3 μM": 94
  },
  {
    "molecule": "O=C(O)c1ccc2c(c1)CCCC(c1cc(F)cc(C(F)(F)F)c1)=C2c1ccc(C=C2CN(CCCF)C2)cc1 [Example 155]",
    "unit-string": "%",
    "% Degradation At 0.3 μM": 91
  },
  {
    "molecule": "O=C(O)c1ccc2c(c1)CCCC(c1cccc3c1CCC3(F)F)=C2c1ccc(C=C2CN(CCCF)C2)cc1 [Example 9]",
    "unit-string": "%",
    "% Degradation At 0.3 μM": 90
  },
  {
    "molecule": "O=C(O)c1ccc2c(c1)CCCC(c1c(F)cc(C(F)(F)F)cc1F)=C2c1ccc(C=C2CN(CCCF)C2)cc1 [Example 21]",
    "unit-string": "%",
    "% Degradation At 0.3 μM": 93
  },
  {
    "molecule": "O=C(O)c1ccc2c(c1)CCCC(c1cccc(F)c1F)=C2c1ccc(C=C2CN(CCCF)C2)cc1 [Example 55]",
    "unit-string": "%",
    "% Degradation At 0.3 μM": 94
  },
  {
    "molecule": "Cc1c(C2=C(c3ccc(C=C4CN(CCC(F)(F)F)C4)cc3)c3ccc(C(=O)O)cc3CCC2)ccc(F)c1F [Example 112]",
    "unit-string": "%",
    "% Degradation At 0.3 μM": 100
  },
  {
    "molecule": "O=C(O)c1ccc2c(c1)CCCC(c1ccc(C3CC3)cc1C(F)(F)F)=C2c1ccc(C=C2CN(CCCF)C2)cc1 [Example 141]",
    "unit-string": "%",
    "% Degradation At 0.3 μM": 88
  },
  {
    "molecule": "Cl.O=C(O)c1ccc2c(c1)CCCC(c1ccc(Cl)cc1Cl)=C2c1ccc(C=C2CN(CCCF)C2)cc1F [Example 101]",
    "unit-string": "%",
    "% Degradation At 0.3 μM": 93
  },
  {
    "molecule": "O=C(O)c1ccc2c(c1)CCCC(c1ccc(Cl)cc1C(F)(F)F)=C2c1ccc(C=C2CN(CCC(F)F)C2)cc1 [Example 128]",
    "unit-string": "%",
    "% Degradation At 0.3 μM": 93
  },
  {
    "molecule": "O=C(O)c1ccc2c(c1)CCCC(c1ccc(F)cc1F)=C2c1c(F)cc(C=C2CN(CCCF)C2)cc1F [Example 52]",
    "unit-string": "%",
    "% Degradation At 0.3 μM": 97
  },
  {
    "molecule": "Cc1cc(F)ccc1C1=C(c2ccc(C=C3CN(CCCF)C3)cc2F)c2ccc(C(=O)O)cc2CCC1 [Example 11]",
    "unit-string": "%",
    "% Degradation At 0.3 μM": 91
  },
  {
    "molecule": "O=C(O)c1ccc2c(c1)CCCC(c1ccc(Cl)cc1F)=C2c1ccc(C=C2CN(CCCF)C2)cc1 [Example 58]",
    "unit-string": "%",
    "% Degradation At 0.3 μM": 99
  },
  {
    "molecule": "Cc1ccc(C2=C(c3ccc(C=C4CN(CCCF)C4)cc3)c3ccc(C(=O)O)cc3CCC2)c(Cl)c1 [Example 41]",
    "unit-string": "%",
    "% Degradation At 0.3 μM": 92
  },
  {
    "molecule": "Cc1c(C2=C(c3ccc(C=C4CN(CCCF)C4)cc3)c3ccc(C(=O)O)cc3CCC2)cccc1C(F)(F)F [Example 14]",
    "unit-string": "%",
    "% Degradation At 0.3 μM": 88
  },
  {
    "molecule": "Cc1cc(F)ccc1C1=C(c2ccc(C=C3CN(CCCF)C3)c(C(F)(F)F)c2)c2ccc(C(=O)O)cc2CCC1 [Example 157]",
    "unit-string": "%",
    "% Degradation At 0.3 μM": 88
  },
  {
    "molecule": "Cc1c(C2=C(c3ccc(C=C4CN(CCC(F)F)C4)cc3)c3ccc(C(=O)O)cc3CCC2)cccc1C(F)(F)F [Example 134]",
    "unit-string": "%",
    "% Degradation At 0.3 μM": 93
  },
  {
    "molecule": "O=C(O)c1ccc2c(c1)CCCC(C1CC3CCC(C3)C1)=C2c1ccc(C=C2CN(CCCF)C2)cc1 (stereo not shown) [Example 178]",
    "unit-string": "%",
    "% Degradation At 0.3 μM": 95
  },
  {
    "molecule": "O=C(O)c1ccc2c(c1)CCCC(c1ccc(Cl)cc1)=C2c1ccc(C=C2CN(CCCF)C2)cc1 [Example 181]",
    "unit-string": "%",
    "% Degradation At 0.3 μM": 91
  },
  {
    "molecule": "O=C(O)c1ccc2c(c1)CCCC(c1cccc(F)c1C(F)(F)F)=C2c1ccc(C=C2CN(CCCF)C2)cc1 [Example 24]",
    "unit-string": "%",
    "% Degradation At 0.3 μM": 95
  },
  {
    "molecule": "O=C(O)c1ccc2c(c1)CCCC(c1ccc(F)cc1F)=C2c1cc(F)c(C=C2CN(CCCF)C2)c(F)c1 [Example 59]",
    "unit-string": "%",
    "% Degradation At 0.3 μM": 93
  },
  {
    "molecule": "O=C(O)c1ccc2c(c1)CCCC(c1cccc(C(F)(F)F)c1F)=C2c1ccc(C=C2CN(CCC(F)F)C2)cc1 [Example 129]",
    "unit-string": "%",
    "% Degradation At 0.3 μM": 94
  },
  {
    "molecule": "O=C(O)c1ccc2c(c1)CCCC(c1cccc(Cl)c1C(F)(F)F)=C2c1ccc(C=C2CN(CCCF)C2)cc1 [Example 23]",
    "unit-string": "%",
    "% Degradation At 0.3 μM": 96
  },
  {
    "molecule": "O=C(O)c1ccc2c(c1)CCCC(c1ccc(C(F)(F)F)cc1C(F)(F)F)=C2c1ccc(C=C2CN(CCCF)C2)cc1 [Example 16]",
    "unit-string": "%",
    "% Degradation At 0.3 μM": 93
  },
  {
    "molecule": "O=C(O)c1ccc2c(c1)CCCC(c1ccc3c(c1F)CCC3)=C2c1ccc(C=C2CN(CCC(F)F)C2)cc1 [Example 161]",
    "unit-string": "%",
    "% Degradation At 0.3 μM": 92
  },
  {
    "molecule": "O=C(O)c1ccc2c(c1)CCCC(c1cc(F)cc3c1CCC3)=C2c1ccc(C=C2CN(CCCF)C2)cc1 [Example 4]",
    "unit-string": "%",
    "% Degradation At 0.3 μM": 86
  },
  {
    "molecule": "Cc1cc(F)ccc1C1=C(c2c(C)cc(C=C3CN(CCCF)C3)cc2F)c2ccc(C(=O)O)cc2CCC1.Cl [Example 62]",
    "unit-string": "%",
    "% Degradation At 0.3 μM": 99
  },
  {
    "molecule": "Cc1cc(C#N)ccc1C1=C(c2ccc(C=C3CN(CCCF)C3)cc2)c2ccc(C(=O)O)cc2CCC1 [Example 84]",
    "unit-string": "%",
    "% Degradation At 0.3 μM": 92
  },
  {
    "molecule": "CC1(C)CCCC(C2=C(c3ccc(C=C4CN(CCCF)C4)cc3)c3ccc(C(=O)O)cc3CCC2)C1 (single isomer, unassigned) [Example 171]",
    "unit-string": "%",
    "% Degradation At 0.3 μM": 88
  }
]
